# target: CUL2^ZYG11B (residues 490–728) (human, UniProt Q9C0D3 490-728)
# Sequence (Q9C0D3 490-728): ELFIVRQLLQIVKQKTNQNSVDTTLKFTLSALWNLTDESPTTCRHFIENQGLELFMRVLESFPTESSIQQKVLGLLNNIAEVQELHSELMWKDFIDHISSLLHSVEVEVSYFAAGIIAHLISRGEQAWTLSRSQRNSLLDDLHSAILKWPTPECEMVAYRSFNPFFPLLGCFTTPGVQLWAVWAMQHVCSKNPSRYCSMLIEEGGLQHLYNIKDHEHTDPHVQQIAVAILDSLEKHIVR
# method.description: ITC
pKd: −log10 of the molar value.
measurement.type: pKd

Task: Please report the recorded pKd for GY [SARS-CoV-2 ORF10 N2 peptide] .
Output: < 3.70
